Kindly state TGI for each of the entries shown.
# System: OVCAR-5 ovarian
# test: NCI tumour cell line growth inhibition, 48 h
Answers are plain numbers, in µM.

- input-smiles: "Nc1cc2c(cc1[N+](=O)[O-])[nH]c1c(-c3ccccc3)nccc12"
  TGI [µM]: 98.3

Let us move to another entry and its TGI.
Prompt: Return TGI measured with OVCAR-5 ovarian given this molecule: CCCCCCCCCCCCCCCC[N+](C)(C)Cc1ccc(C[N+](C)(C)CCCCCCCCCCCCCCCC)cc1
Response: 4.67

====

Give measured TGI for each item. Keep answers brief.
# System: M14 melanoma
# test: NCI tumour cell line growth inhibition, 48 h

- molecule: "CCCCCCCCCCCCCCCC[N+](C)(C)Cc1ccc(C[N+](C)(C)CCCCCCCCCCCCCCCC)cc1"
  TGI: "> 100 µM"
- molecule: "O=C1C(=O)c2ccc(Br)cc2-c2cc(Br)ccc21"
  TGI: "> 66.6 µM"
- molecule: "COC(=O)[C@]1(C)CCCn2c(=O)n(-c3ccccc3)c(=O)n21"
  TGI: "> 100 µM"

Each of the following entries comes with a recorded value; kindly state TGI for each.
1. O=C(Cc1ccccc1)Oc1ccc2c(-c3ccccc3)c(C(=O)Nc3ccc(Cl)cc3)c(=O)oc2c1
2. O=S(=O)(Nc1ccc(-c2nc(-c3cccc(OCCN4CCOCC4)c3)c(-c3ccnc(Br)c3)[nH]2)cc1)c1ccccc1
3. CO/C(=N\N=C(/C)C(F)(F)F)c1ccncc1
4. O=C(NO)c1ccc(C(=O)NO)cc1
5. CC12CC3c4ccccc4CN1C3(c1ccccc1)OC2=O (stereo not given)
6. O=C1CC(NC(=O)C(F)(F)F)c2c(Br)sc(N3CCC(c4ccccc4)CC3)c21 (stereo not given)
7. O=C(O)CSc1n[nH]c(/C=C/c2ccccc2)n1

Response:
> 100 µM
5.55 µM
> 100 µM
> 100 µM
> 100 µM
> 100 µM
> 100 µM

Count: 5. Required value per item: TGI.
1. N#CC(c1ccc(O)cc1)N1CCN(C(C#N)c2ccc(O)cc2)CC1 (stereo not given)
2. O=C1OCC(c2ccc(O)c(O)c2)=C1c1cc(O)c(O)c(O)c1
3. C=C1CC2CC[C@@]34C[C@@H]5O[C@@H]6C(O[C@H]7CC[C@H](CC(=O)OC8[C@@H](C)C9OC%10C[C@]%11(C[C@@H]%12O[C@@]%13(C[C@@H](C)[C@@H]%12O%11)C[C@H](C)[C@@H]%11OC%12CC(C(O)CO)OC%12C[C@@H]%11O%13)OC%10CC9O[C@H]8C[C@H]8O[C@@H](CC[C@@H]1O2)C[C@@H](C)C8=C)O[C@@H]7[C@@H]6O3)C5O4 (stereo not given in full)
4. CS(=O)(=O)C1S(=O)(=O)OCCOS1(=O)=O
5. C[C@@H]1O[C@@H](O[C@H]2C[C@@H](O)[C@]3(CO)C4C(CC[C@]3(O)C2)[C@@]2(O)CC[C@H](C3=CC(=O)OC3)[C@@]2(C)C[C@H]4O)[C@H](O)[C@H](O)[C@H]1O (stereo not given in full)

Response:
> 100 µM
69.7 µM
0.00675 µM
> 100 µM
0.166 µM

Need TGI for each of these molecules.
1. COc1ccc2nc3ccc(OC)cc3c(S(=O)Cc3ccc([N+](=O)[O-])cc3)c2c1 (stereo not given)
2. O=C(C=P(c1ccccc1)(c1ccccc1)c1ccccc1)C12CC3CC(CC(C3)C1)C2
3. CC(=O)N[C@@H](Cc1ccc(O)cn1)C(=O)NCc1cccc(F)c1
4. CN(C)[C@@H]1C(=O)C(C(N)=O)=C(O)[C@@]2(O)C(=O)C3=C(O)c4c(O)cccc4C[C@H]3C[C@@H]12

Response:
30.6 µM
32.7 µM
> 100 µM
3.87 µM

====

# Tested on: BT-549 breast
# test: NCI tumour cell line growth inhibition, 48 h; in the data active = GI50 below about 0.43 µM; inactive = the rest
Classes to choose from: active, inactive

# example entries with known answers
- molecule: "COc1cc2c(-c3nc4cc(Cl)c(F)cc4s3)cc(=O)oc2c(C)c1OC"
  subject-of-test: "BT-549 breast"
  class-label: "inactive"
- molecule: "O=C1C(=O)c2ccc(Br)cc2-c2cc(Br)ccc21"
  subject-of-test: "BT-549 breast"
  class-label: "inactive"
- molecule: "CN(C(=O)c1ccc(F)cc1C(F)(F)F)C1CCN(c2nnc(-c3ccnn3C)c3ccccc23)CC1"
  subject-of-test: "BT-549 breast"
  class-label: "inactive"

Prompt: // return assay outcome for Cc1nc2sc(C(=O)Nc3cccc4ccccc34)c(N)c2cc1C(C)O (stereo unspecified)
Response: active

Prompt: Field: outcome | Entry: Brc1c[n+](Cc2ccc3ccccc3c2)cn1Cc1ccc2ccccc2c1
Response: inactive

Prompt: Which result was noted for this molecule in the test: CCCC[C@@H]1NC(=O)[C@H](CCCCN)NC(=O)[C@H](CCCNC(=N)N)NC(=O)[C@H](CC(C)C)NC(=O)[C@@H](NC(=O)[C@H](Cc2cccc(Cl)c2)NC(=O)[C@@H]2CCCN2C(=O)[C@@H](NC(C)=O)C(C)C)CCSSC[C@@H](C(=O)N[C@@H](CCCCN)C(=O)N2CCC[C@H]2C(=O)N2CCC[C@H]2C(=O)N[C@@H](CCC(=O)O)C(N)=O)NC(=O)[C@H](Cc2ccccc2)NC(=O)[C@H](CO)NC(=O)[C@H](C)NC(=O)[C@@H]2CCCN2C1=O
Response: inactive

====

# Test system: SK-MEL-2 melanoma
# test: NCI tumour cell line growth inhibition, 48 h
What TGI was measured for each of the following?

Answered cases to consult:
- compound: "CSc1nc2c(c(N(C)C)n1)C=Nn1c(nc3ccccc31)S2"
  TGI: "> 100 µM"
- compound: "O=[N+]([O-])/C(C(Cl)=C(Cl)Cl)=C1\\Nc2ccccc2O1"
  TGI: "> 100 µM"
- compound: "CCCCOC1CC2(c3ccc(OC)cc3)C(=O)c3ccccc3N2O1 (stereo not given)"
  TGI: "> 100 µM"
- compound: "c1ccc(COc2ccc(C[P+](c3ccccc3)(c3ccccc3)c3ccccc3)cc2)cc1"
  TGI: "0.727 µM"
- compound: "Nc1nc2ncn(CCO)c2c(=O)[nH]1"
  TGI: "> 100 µM"

Return reported TGI values for all items listed beneath this line.
1. CN(C)CCNC(=O)c1ccc2ccc3cccnc3c2n1
2. COc1ccc(C2CC(c3cc4c(C)c(C(=O)c5ccccc5)oc4cc3O)=Nc3ccccc3S2)cc1OC (stereo not given)
3. COc1ccc(C[C@@H]2CN(C(=O)c3ccccc3)[C@H](Cc3ccc(O)cc3)CN2C(=O)c2ccccc2)cc1Br
4. Cc1c(C)c(C)c(-n2c(=O)n(C)c(=O)n2C(C)(C)C)c(C)c1C
5. CCOC(=O)C(NCc1ccccc1)(NC(=O)c1ccccc1)C(F)(F)F (stereo not given)

Response:
["29.3 µM", "> 100 µM", "> 100 µM", "> 100 µM", "> 100 µM"]

====

Provide the reported TGI of each item.
# Test system: HCT-15 colon
# test: NCI tumour cell line growth inhibition, 48 h

Use the examples below as a reference point.
- compound: "Nc1ccccc1C#C/C=C\\C#Cc1ccc(F)cc1F"
  recorded-value: "31.7 µM"
- compound: "CCCCCCCCCCCCNC(=O)NCC(OCC)OCC"
  recorded-value: "> 10 µM"
- compound: "CC1OCC2OC(C)OC(C3C4=C(CC(C)(C)CC4=O)OC4=C3C(=O)CC(C)(C)C4)C2O1 (stereo unspecified)"
  recorded-value: "> 100 µM"

List the reported TGI of each compound below.
1. CCC1(O)C=CC(=O)C=C1
2. O=S(=O)(O)c1ccc(NN(c2c(O)ccc3ccccc23)S(=O)(=O)O)cc1
3. CC(C)(C)C1CCC2c3c([nH]c4ccccc34)C3C(=O)N(c4cc(Br)cc(Br)c4)C(=O)C3C2C1 (stereo unspecified)
4. COc1c2cc(C(C)(C)C)cc1CSCc1cc(C(C)(C)C)cc(c1OC)CCCCC2

Response:
1: 55.5 µM; 2: > 100 µM; 3: > 100 µM; 4: > 50 µM

Hi there! I need TGI for each item below, if you can.
1. O=C(CCSC(CC(=O)c1ccc(Cl)cc1)c1ccc(Cl)cc1)Nc1ccc(Cl)cc1 (stereo unspecified)
2. CN(NC(=O)c1ccco1)C1=NCCCCN1
3. OCC(O)COc1ccc(Br)cc1 (stereo unspecified)
4. O=C1Nc2ccccc2C(=O)OC(Cc2ccccc2)=Nc2ccccc21

Response:
["24.2 µM", "> 100 µM", "> 100 µM", "> 100 µM"]

====

# Tested on: SN12C renal
# test: NCI tumour cell line growth inhibition, 48 h; in the data active = GI50 below about 0.43 µM; inactive = the rest
In this exercise, the only acceptable responses are true (1) = active, false (0) = inactive

Worked examples, 3 compounds total:
- compound: "COc1ccc2c(c1)C(=O)c1c-2c(NCCCN(C)C)nc2ccccc12"
  class-label: "false (0)"
- compound: "CCCOC(=O)N[C@H]1CCc2c(Br)c(OC)c(OC)c(OC)c2-c2ccc(SC)c(=O)cc21"
  class-label: "true (1)"
- compound: "C=C1CC2CC[C@@]34C[C@@H]5O[C@@H]6C(O[C@H]7CC[C@H](CC(=O)OC8[C@@H](C)C9OC%10C[C@]%11(C[C@@H]%12O[C@@]%13(C[C@@H](C)[C@@H]%12O%11)C[C@H](C)[C@@H]%11OC%12CC(C(O)CO)OC%12C[C@@H]%11O%13)OC%10CC9O[C@H]8C[C@H]8O[C@@H](CC[C@@H]1O2)C[C@@H](C)C8=C)O[C@@H]7[C@@H]6O3)C5O4 (some centres undefined)"
  class-label: "true (1)"

Prompt: Lab log entry: Cc1cc(N(CCCl)CCCl)ccc1C=Nc1cccnc1 — outcome as called in the assay?
Response: false (0)
